Measured IC50 by item
# Test system: SW480
# assay: Cytotoxicity against human SW480 cells assessed as total cell protein after 48 hrs by SRB assay
# Format: functional, cell-based
# experimental.context: SW480, 48 h
Provide the reading as a plain figure in µM.

Below: 5 molecules and their reported IC50.
1) O=C(/C=C/c1ccc(Cl)cc1)c1cccc(-c2cccc(F)c2)c1 16.9
2) O=C(/C=C/c1cccc(Br)c1)c1cccc(-c2cccc(F)c2)c1 8.61
3) COc1cccc(/C=C/C(=O)c2ccc(N)c(-c3ccc(F)cc3)c2)c1OC 12.5
4) COc1ccc(/C=C/C(=O)c2cccc(-c3ccc(F)cc3)c2)cc1OC 6.49
5) COc1cc(/C=C/C(=O)c2ccc(N)c(-c3ccc(F)cc3)c2)cc(OC)c1OC 6.12

So the reported IC50 for COc1ccc(/C=C/C(=O)c2ccc(N)c(-c3ccc(F)cc3)c2)cc1OC , on SW480, turned out to be 6.64

So the reported IC50 for COc1ccccc1/C=C/C(=O)c1cccc(-c2cccc(F)c2)c1 , on SW480, turned out to be 16.6

So the reported IC50 for COc1ccc(-c2cc(C(=O)/C=C/c3cc(OC)c(OC)c(OC)c3)ccc2N)cc1OC , on SW480, turned out to be 5.63

So the reported IC50 for COc1ccc(/C=C/C(=O)c2cccc(-c3cccc(F)c3)c2)cc1 , on SW480, turned out to be 4.51
